# System: BJAB
# protocol.description: Induction of apoptosis in human BJAB cells assessed as DNA fragmentation after 72 hrs by flow cytometry
# Format: functional, cell-based
assay.endpoint: AC50

{"columns": ["compound", "AC50"],
 "data": [
  ["COc1cc2c(c(OC)c1OC)-c1cc3c(ccn3C)cc1C(OC(C)=O)CC2 (racemic)", "50 nM"]
]}

Would you kindly share the measured AC50 for "COc1cc2c(c(OC)c1OC)-c1ccc(OC)c(=O)cc1[C@@H](NC(C)=O)CC2" ?
30 nM

Quick check: AC50 of COc1cc2c(c(OC)c1OC)-c1cc3c(ccn3C)cc1C(N=[N+]=[N-])CC2 (racemic) ?
> 100000 nM

Param item = COc1cc2c(c(OC)c1OC)-c1cc3c(ccn3C)cc1C(NC(C)=O)CC2 (racemic) ; retrieve measured AC50.
> 100000 nM

# get_value(readout='AC50', item= "COc1cc2c(c(OC)c1OC)-c1cc3c(ccn3C)cc1C(=O)CC2" )
50 nM

What value of measured AC50 is listed for COc1cc2c(c(OC)c1OC)-c1cc3c(ccn3C)cc1C(O)CC2 (racemic) ?
1 nM

What AC50 value was documented for this compound, COc1cc2c(c(OC)c1OC)-c1cc3c(ccn3C)cc1C(N)CC2 (racemic) ?
5000 nM

src = ChEMBL document CHEMBL3769339
